Target: CHRM2 (Homo sapiens)
Sequence (P08172 whole entry): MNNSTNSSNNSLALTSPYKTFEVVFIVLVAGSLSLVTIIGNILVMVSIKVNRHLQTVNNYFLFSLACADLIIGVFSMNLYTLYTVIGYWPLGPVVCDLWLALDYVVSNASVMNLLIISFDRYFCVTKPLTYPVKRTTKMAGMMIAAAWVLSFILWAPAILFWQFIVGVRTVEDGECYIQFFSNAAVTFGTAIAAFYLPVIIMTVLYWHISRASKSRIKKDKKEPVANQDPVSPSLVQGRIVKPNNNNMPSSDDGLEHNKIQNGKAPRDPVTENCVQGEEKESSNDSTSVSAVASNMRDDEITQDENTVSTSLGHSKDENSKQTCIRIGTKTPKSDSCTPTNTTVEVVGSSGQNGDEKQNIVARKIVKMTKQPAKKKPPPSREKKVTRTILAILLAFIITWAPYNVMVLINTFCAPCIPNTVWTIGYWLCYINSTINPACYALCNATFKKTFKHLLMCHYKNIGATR
Assay: IC50 antagonist activity screen, PathHunter β-Arrestin, CHRM2
Type: cell-based
Settings: maximum of IC50 curve
measured_attribute: maximum inhibition (antagonism) CHRM2 (%)

compound	unit_label	result_value
CCCCCc1cc(O)c2c(c1)OC1(C)CCC3C1C2C3(C)C (stereo not shown) [CBL, cannabicyclol]	%	47
CCCCCCc1cc(O)c(C/C=C(\C)CCC=C(C)C)c(O)c1 [CBG-C6, cannabigerol hexyl]	%	0
C=C(C)[C@@H]1CCC(C)=C[C@H]1c1c(O)cc(CCCCCCC)cc1O [CBD-C7, cannabidol heptyl]	%	90
CCCCCCCc1cc(O)c(C/C=C(\C)CCC=C(C)C)c(O)c1C(=O)O [CBGA-C7, cannabigerolic acid heptyl]	%	4
